- study_system: JNK1 (Homo sapiens)
- procedure_text: DELFIA kinase assay, JNK1
- Type: biochemical
- measurement_parameters: DELFIA, biotinylated GST-ATF2 substrate, 10 minute pre-incubation, final ATP 7 uM
Reported IC50 values follow for various compounds

Please review the entries below; each comes with its answer.
- smiles_code: "CC(C)NC(=O)c1cccc(C(=O)NCc2ccc(N3CCCC3)nc2)n1"
  recorded_result: "102 to 959 nM"
- smiles_code: "CC(C)NC(=O)c1cccc(C(=O)NCc2cccc(-c3ccc(C#N)cc3)c2)n1"
  recorded_result: "102 to 959 nM"
- smiles_code: "CC(C)NC(=O)c1cccc(C(=O)NCc2ccc(-c3cccc(S(C)(=O)=O)c3)cc2)n1"
  recorded_result: "4 to 97 nM"
- smiles_code: "Nc1nc2ccc(CNC(=O)c3cccc(NCc4ccccc4)n3)cc2s1"
  recorded_result: "> 1000 nM"
- smiles_code: "CC(C)(C)NC(=O)c1cccc(C(=O)NCc2ccc3nc(N)sc3c2)n1"
  recorded_result: "102 to 959 nM"

Now, please, on to the next compound.
Nc1nc2ccc(CNC(=O)c3cccc(Cl)n3)cc2s1 yielded IC50 of > 1000 nM

====

Reported pIC50 values follow for various molecules
- study_system: JNK1 (Homo sapiens, UniProt P45983)
- Sequence (P45983 whole entry, species assumed): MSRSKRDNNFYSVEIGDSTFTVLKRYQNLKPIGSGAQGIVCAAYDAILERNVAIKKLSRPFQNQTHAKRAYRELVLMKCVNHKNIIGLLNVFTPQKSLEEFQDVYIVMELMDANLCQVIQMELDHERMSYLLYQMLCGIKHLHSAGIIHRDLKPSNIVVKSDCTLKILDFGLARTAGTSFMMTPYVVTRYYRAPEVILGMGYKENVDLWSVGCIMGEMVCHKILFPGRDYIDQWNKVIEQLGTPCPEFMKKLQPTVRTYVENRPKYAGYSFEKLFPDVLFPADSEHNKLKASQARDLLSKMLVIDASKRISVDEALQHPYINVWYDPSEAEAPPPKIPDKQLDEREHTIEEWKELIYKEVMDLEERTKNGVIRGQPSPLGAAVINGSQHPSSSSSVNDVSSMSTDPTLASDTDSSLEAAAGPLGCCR
- procedure_text: DELFIA kinase assay, JNK1
- Assay type: biochemical
- measurement_parameters: DELFIA, biotinylated GST-ATF2 substrate, 10 minute pre-incubation, final ATP 7 uM
pIC50: −log10 of the molar value.

- smiles_code: "CCOC(=O)N1CCC(NC(=O)c2cccc(NCc3ccc4c(c3)OCO4)n2)CC1"
  pIC50: "< 6.00"
- smiles_code: "CNC(=O)c1cccc(C(=O)NCc2ccc3nc(N)sc3c2)n1"
  pIC50: "< 6.00"
- smiles_code: "CC(C)NC(=O)c1cccc(C(=O)NCc2ccc(-c3cccc(C(F)(F)F)c3)nc2)n1"
  pIC50: "6.02 to 6.99"
- smiles_code: "Cc1cccc(-n2cc(CNC(=O)c3ccc(F)c(C(=O)NC(C)C)n3)cn2)c1"
  pIC50: "7.01 to 8.40"
- smiles_code: "CS(=O)(=O)c1ccc(CNC(=O)c2cccc(-n3ncc4ccccc43)n2)cc1"
  pIC50: "6.02 to 6.99"

CC(C)NC(=O)c1cccc(C(=O)NCc2cnn(C(C)C)c2)n1 yielded pIC50 of 6.02 to 6.99

COc1cccc2ccc(C(=O)NCc3ccc(S(C)(=O)=O)cc3)nc12 yielded pIC50 of 6.02 to 6.99

Nc1nc2ccc(CNC(=O)c3cccc(-n4cccn4)n3)cc2s1 yielded pIC50 of 6.02 to 6.99

====

- study_system: JNK1 (Homo sapiens, UniProt P45983)
- procedure_text: DELFIA kinase assay, JNK1
- Assay type: biochemical
- measurement_parameters: DELFIA, biotinylated GST-ATF2 substrate, 10 minute pre-incubation, final ATP 7 uM
pIC50: −log10 of the molar value.
observed_property: pIC50

CCOC(=O)N1CCC(NC(=O)c2cccc(C(=O)NCc3ccncc3)n2)CC1 [Compound 42] yielded pIC50 of < 6.00

Nc1nc2ccc(CNC(=O)c3cccc(C(=O)NCCCO)n3)cc2s1 [Compound 17] yielded pIC50 of < 6.00

Nc1nc2ccc(CNC(=O)c3cccc(C(=O)NCCCn4ccnc4)n3)cc2s1 [Compound 69] yielded pIC50 of 6.02 to 6.99

CC(C)NC(=O)c1cccc(C(=O)NCc2ccc(S(C)(=O)=O)cc2)n1 [Compound 88] yielded pIC50 of 6.02 to 6.99

Cc1nc2cc(CNC(=O)c3cccc(C(=O)NC(C)C)n3)ccc2[nH]1 [Compound 108] yielded pIC50 of 6.02 to 6.99

CC(C)NC(=O)c1cccc(C(=O)NCc2ccc(S(N)(=O)=O)cc2)n1 [Compound 98] yielded pIC50 of 6.02 to 6.99
